Species on record: Rattus norvegicus
RUN_DESCRIPTION: Open TG-GATES - Regimen: Single
Format: toxicity, organism-based, Sprague-Dawley
Design: regimen Single, gender Male, age 6 weeks
STATED_CONDITIONS: in vivo, po, 0 mg/kg, 6 h, tissue Blood, route gavage, dose level Control
ENDPOINT_NAME: Neu (%)
# unit: % | format: bare number

The examples below pair each entry with its known result.
INSERT INTO assay_data (compound, observed_measurement) VALUES
  ('CC(CCc1ccccc1)NCC(O)c1ccc(O)c(C(N)=O)c1 (stereo unspecified)', 22.2),
  ('CC[C@@H](CO)NCCN[C@@H](CC)CO', 13),
  ('CCN(CC)N=O', 16),
  ('O=C(O)COc1nn(Cc2ccccc2)c2ccccc12', 13.4),
  ('CC(=O)Nc1ccc2c(c1)Cc1ccccc1-2', 16.8);

The record that follows has no Neu shown yet.
Request: Find the recorded Neu belonging to CC(=O)N1CCN(c2ccc(OCC3COC(Cn4ccnc4)(c4ccc(Cl)cc4Cl)O3)cc2)CC1 (stereo unspecified) and report it.
Response: 13.4

----------
// Bas lookup, one value per entry
Species: Rattus norvegicus
RUN_DESCRIPTION: Open TG-GATES - Regimen: Single
Assay type: toxicity, organism-based, Sprague-Dawley
Parameters: regimen Single, gender Male, age 6 weeks
STATED_CONDITIONS: in vivo, po, 0 mg/kg, 6 h, tissue Blood, route gavage, dose level Control
# unit: % | format: bare number

The examples below pair each entry with its known result.
INSERT INTO results (compound, endpoint_name, units_label, observed_measurement) VALUES
  ('CC[C@@H](CO)NCCN[C@@H](CC)CO [ETHAMBUTOL]', 'Bas', '%', 0),
  ('O=C(O)COc1nn(Cc2ccccc2)c2ccccc12 [BENDAZAC]', 'Bas', '%', 0),
  ('CCN(CC)N=O [N-NITROSODIETHYLAMINE]', 'Bas', '%', 0.2);

Request: Find the recorded Bas belonging to CC(C)Cc1ccc(C(C)C(=O)O)cc1 (configuration not stated) [IBUPROFEN] and report it.
Response: 0

Request: Find the recorded Bas belonging to CC(=O)N1CCN(c2ccc(OCC3COC(Cn4ccnc4)(c4ccc(Cl)cc4Cl)O3)cc2)CC1 (configuration not stated) [KETOCONAZOLE] and report it.
Response: 0

Request: Find the recorded Bas belonging to CC(=O)Nc1ccc2c(c1)Cc1ccccc1-2 [2-ACETYLAMINOFLUORENE] and report it.
Response: 0.6

Request: Find the recorded Bas belonging to CC(CCc1ccccc1)NCC(O)c1ccc(O)c(C(N)=O)c1 (configuration not stated) [LABETALOL] and report it.
Response: 0

----------
Species on record: Rattus norvegicus
RUN_DESCRIPTION: Open TG-GATES - Regimen: Daily Repeat
Format: toxicity, organism-based, Sprague-Dawley
Parameters: regimen Daily Repeat, gender Male, age 6 weeks
STATED_CONDITIONS: in vivo, po, 0 mg/kg, […], tissue Plasma, route gavage, dose level Control, time 14 day
The threshold is inclusive: gamma-GTP of exactly 1 IU/L counts as Satisfied; values below receive Not satisfied.

Worked cases, answers included:
INSERT INTO results (molecule, class) VALUES
  ('CC(N)=O [ACETAMIDE]', 'Not satisfied'),
  ('CC(C)Cc1ccc(C(C)C(=O)O)cc1 (stereo not drawn) [IBUPROFEN]', 'Satisfied'),
  ('CC[C@@H](CO)NCCN[C@@H](CC)CO [ETHAMBUTOL]', 'Satisfied'),
  ('O=C(O)COc1nn(Cc2ccccc2)c2ccccc12 [BENDAZAC]', 'Satisfied');

Could you now consider this next molecule?
Request: Decide: is the reported value of gamma-GTP for CC(=O)Nc1ccc2c(c1)Cc1ccccc1-2 [2-ACETYLAMINOFLUORENE] equal to or greater than 1 IU/L?
Response: Satisfied
